Would you kindly list IC50 for each of these molecules?
Target: porcine pepsin (Sus scrofa, UniProt P00791)
Sequence (P00791 60-385): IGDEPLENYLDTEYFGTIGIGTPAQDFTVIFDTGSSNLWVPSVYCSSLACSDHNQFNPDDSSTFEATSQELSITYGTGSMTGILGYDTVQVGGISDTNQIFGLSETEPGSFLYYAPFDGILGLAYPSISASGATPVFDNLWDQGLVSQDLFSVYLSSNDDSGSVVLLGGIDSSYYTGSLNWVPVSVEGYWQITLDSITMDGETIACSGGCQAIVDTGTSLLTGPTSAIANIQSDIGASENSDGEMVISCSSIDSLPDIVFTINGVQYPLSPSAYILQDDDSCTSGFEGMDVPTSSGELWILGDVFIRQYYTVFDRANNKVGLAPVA
Non-standard residues stand in square brackets, D forms with d. Residues, ends and D or L forms follow the SMILES beside them. *: point of attachment. Sta = CC(C)C[C@H](N)[C@@H](O)CC(=O)O; Isovaleryl = CC(C)CC(=O)*; Cbz = O=C(OCc1ccccc1)*; Boc = CC(C)(C)OC(=O)*
I'd appreciate it if you wrote the number followed by its unit.

Go through the list and state IC50 for each entry.
1. COC(=O)C[C@H](O)[C@H](CC(C)C)NC(=O)[C@H](C)NC(=O)C[C@H](O)[C@H](CC(C)C)NC(=O)[C@H](CCCCNC(=O)OCc1ccccc1)NC(=O)[C@H](Cc1ccccc1)NC(=O)CC(C)C [SR 42130, iVa--Phe--Lys(Z)--Sta--Ala--Sta--OMe] (Isovaleryl-FK(Cbz)[Sta]A[Sta]-OMe)
2. CC[C@H](C)[C@H](NC(=O)OC(C)(C)C)C(=O)N[C@@H](Cc1c[nH]cn1)C(=O)N[C@@H](CC(C)C)[C@@H](O)CC(=O)N[C@@H](C)C(=O)N[C@@H](CC(C)C)[C@@H](O)CC(=O)OC [SR 42019, Boc--Ile--His--Sta--Ala--Sta--OMe] (Boc-IH[Sta]A[Sta]-OMe)
3. COC(=O)C[C@H](O)[C@H](CC(C)C)NC(=O)[C@H](C)NC(=O)C[C@H](O)[C@H](CC(C)C)NC(=O)[C@H](Cc1c[nH]c2ccccc12)NC(=O)[C@H](Cc1ccccc1)NC(=O)OCc1ccccc1 [SR 41416, Z Phe--Trp--Sta--Ala--Sta--OMe] (Cbz-FW[Sta]A[Sta]-OMe)

Ans.
["27 nM", "73 nM", "65 nM"]

====

Biological target: human plasma renin activity (Homo sapiens, UniProt P00797)
Construct: the human plasma contain and the substrate: angiotensinogen, and the enzyme: renin; from tissue; host or cells: pool of human plasma
Sequence (P00797 67-406): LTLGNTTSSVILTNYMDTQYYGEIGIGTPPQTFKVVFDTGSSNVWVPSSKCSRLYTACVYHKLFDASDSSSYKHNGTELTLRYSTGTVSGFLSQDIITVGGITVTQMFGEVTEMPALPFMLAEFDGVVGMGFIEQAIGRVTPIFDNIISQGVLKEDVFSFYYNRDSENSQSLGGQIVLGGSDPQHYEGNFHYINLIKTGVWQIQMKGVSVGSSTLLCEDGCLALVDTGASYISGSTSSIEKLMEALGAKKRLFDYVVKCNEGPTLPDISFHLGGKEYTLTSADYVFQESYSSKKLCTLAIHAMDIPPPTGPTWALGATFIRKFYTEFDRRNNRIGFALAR
Experiment: Inhibition of the human plasma renin activity (P.R.A.)
Format: biochemical
Details: pH 6, maleate buffer, incubation 30 minutes, 37° C., pool of human plasma; read-out: INHIBITION OF HUMAN P.R.A. (IC50) pH 6
Description: The angiotensin I released during the reaction (the human plasma contain and the substrate: angiotensinogen, and the enzyme: renin) is measured by radioimmunological determination using a kit. Of course, an inhibitor of the enzyme for conversion of the PMSF (phenylmethylsulphonyl fluoride) is added to the incubation medium. Two types of experiments were carried out: one at pH 6, which is the optimum pH for the enzyme reaction with human renin (maleate buffer, incubation: 30 minutes), and […]
Non-standard residues stand in square brackets, D forms with d. Residues, ends and D or L forms follow the SMILES beside them. *: point of attachment. Sta = CC(C)C[C@H](N)[C@@H](O)CC(=O)O; Butanoyl(3,3-Me2) = CC(C)(C)CC(=O)*; Hydrocinnamoyl = O=C(CCc1ccccc1)*; X2 = O=C(NCCS(=O)(=O)*)OCc1ccccc1; Isovaleryl = CC(C)CC(=O)*; Nva = CCC[C@H](N)C(=O)O; Cbz = O=C(OCc1ccccc1)*; Boc = CC(C)(C)OC(=O)*
measure-name: IC50 (nM)
Answers are plain numbers, in nM.

Worked cases, IC50 given:
| compound | observed-result |
| --- | --- |
| CCC[C@H](NC(=O)[C@H](Cc1ccccc1)NC(C)=O)C(=O)N[C@@H](CC(C)C)[C@@H](O)CC(=O)N[C@@H](C)C(=O)N[C@@H](CC(C)C)[C@@H](O)CC(=O)OC [SR 41994, Ac--Phe--Nva--Sta--Ala--Sta--OMe] (Ac-F[Nva][Sta]A[Sta]-OMe) | 0.76 |
| COC(=O)C[C@H](O)[C@H](CC(C)C)NC(=O)[C@H](C)NC(=O)C[C@H](O)[C@H](CC(C)C)NC(=O)[C@H](Cc1ccccc1)NC(=O)[C@H](Cc1ccccc1)NC(=O)CC(C)(C)C [SR 42256, t--BuAc--Phe--Phe--Sta--Ala--Sta--OMe] ({Butanoyl(3,3-Me2)}-FF[Sta]A[Sta]-OMe) | 26 |
| COC(=O)C[C@H](O)[C@H](CC(C)C)NC(=O)[C@H](C)NC(=O)C[C@H](O)[C@H](CC(C)C)NC(=O)[C@H](CCCCNC(=O)OCc1ccccc1)NC(=O)[C@H](Cc1ccccc1)NC(=O)CC(C)C [SR 42130, iVa--Phe--Lys(Z)--Sta--Ala--Sta--OMe] (Isovaleryl-FK(Cbz)[Sta]A[Sta]-OMe) | 52 |
| CCC[C@H](NC(=O)[C@H](Cc1ccccc1)NC(=O)CC(C)C)C(=O)N[C@@H](CC(C)C)[C@@H](O)CC(=O)N[C@@H](C)C(=O)N[C@@H](CC(C)C)[C@@H](O)CC(=O)OC [SR 41995, iVa--Phe--Nva--Sta--Ala--Sta--OMe] (Isovaleryl-F[Nva][Sta]A[Sta]-OMe) | 0.03 |
| COC(=O)C[C@H](O)[C@H](CC(C)C)NC(=O)[C@H](C)NC(=O)C[C@H](O)[C@H](CC(C)C)NC(=O)[C@H](Cc1c[nH]cn1)NC(=O)[C@H](Cc1ccccc1)NS(=O)(=O)CCNC(=O)OCc1ccccc1 [SR 41748, Z--Tau--Phe--His--Sta--Ala--Sta--OCH3] (X2-FH[Sta]A[Sta]-OMe) | 2.2 |
| CC(C)C[C@H](NC(=O)[C@H](C)NC(=O)C[C@H](O)[C@H](CC(C)C)NC(=O)[C@@H](NC(=O)[C@@H](Cc1ccccc1)NC(=O)OC(C)(C)C)C(C)C)[C@@H](O)CC(=O)O [SR 41491, Boc--(D)Phe--Val--Sta--Ala--Sta--OH] (Boc-[dF]V[Sta]A[Sta]-OH) | 260 |

Go through the list and state IC50 for each entry.
1. COC(=O)C[C@H](O)[C@H](CC(C)C)NC(=O)[C@H](C)NC(=O)C[C@H](O)[C@H](CC(C)C)NC(=O)[C@H](Cc1ccccc1)NC(=O)[C@@H](Cc1ccccc1)NC(=O)OC(C)(C)C [SR 41518, Boc--(D)Phe--Phe--Sta--Ala--Sta--OMe] (Boc-[dF]F[Sta]A[Sta]-OMe)
2. CC(C)C[C@H](NC(=O)[C@H](C)NC(=O)C[C@H](O)[C@H](CC(C)C)NC(=O)[C@H](Cc1ccccc1)NC(=O)[C@H](Cc1ccccc1)NC(=O)OCc1ccccc1)[C@@H](O)CC(=O)O [SR 41225, Z--Phe--Phe--Sta--Ala--Sta--OH] (Cbz-FF[Sta]A[Sta]-OH)
3. COC(=O)C[C@H](O)[C@H](CC(C)C)NC(=O)[C@H](C)NC(=O)C[C@H](O)[C@H](CC(C)C)NC(=O)[C@H](Cc1ccccc1)NC(=O)[C@H](Cc1ccccc1)NC(=O)CCc1ccccc1 [SR 41768] (Hydrocinnamoyl-FF[Sta]A[Sta]-OMe)
4. COC(=O)C[C@H](O)[C@H](CC(C)C)NC(=O)[C@H](C)NC(=O)C[C@H](O)[C@H](CC(C)C)NC(=O)CNC(=O)[C@H](Cc1ccccc1)NC(=O)CC(C)C [SR 42261, iVa--Phe--Gly--Sta--Ala--Sta--OMe] (Isovaleryl-FG[Sta]A[Sta]-OMe)
5. COC(=O)C[C@H](O)[C@H](CC(C)C)NC(=O)[C@H](C)NC(=O)C[C@H](O)[C@H](CC(C)C)NC(=O)[C@@H](NC(=O)[C@H](Cc1ccc(O)cc1)NC(=O)OCc1ccccc1)C(C)C [SR 41476, Z--Tyr--Val--Sta--Ala--Sta--OMe] (Cbz-YV[Sta]A[Sta]-OMe)
6. CC[C@H](C)[C@H](NC(=O)OC(C)(C)C)C(=O)N[C@@H](Cc1c[nH]cn1)C(=O)N[C@@H](CC(C)C)[C@@H](O)CC(=O)N[C@@H](C)C(=O)N[C@@H](CC(C)C)[C@@H](O)CC(=O)OC [SR 42019, Boc--Ile--His--Sta--Ala--Sta--OMe] (Boc-IH[Sta]A[Sta]-OMe)
7. COC(=O)C[C@H](O)[C@H](CC(C)C)NC(=O)[C@H](C)NC(=O)C[C@H](O)[C@H](CC(C)C)NC(=O)[C@H](C)NC(=O)[C@H](Cc1ccccc1)NC(=O)CC(C)C [SR 42258, iVa--Phe--Ala--Sta--Ala--Sta--OMe] (Isovaleryl-FA[Sta]A[Sta]-OMe)

Ans.
1: 950; 2: 70; 3: 50; 4: 170; 5: 170; 6: 110; 7: 9

Qu. Value lookup for IC50; key = COC(=O)C[C@H](O)[C@H](CC(C)C)NC(=O)[C@H](C)NC(=O)C[C@H](O)[C@H](CC(C)C)NC(=O)[C@H](Cc1ccccc1)NC(=O)[C@H](Cc1ccccc1)NC(=O)CC(C)C [SR 41764, iVa--Phe--Phe--Sta--Ala--Sta--OMe] (Isovaleryl-FF[Sta]A[Sta]-OMe)
Ans. 12
